Reference for the values: ChEMBL document CHEMBL1145784

test.target: Steroid 17-alpha-hydroxylase/17,20 lyase (Homo sapiens, UniProt P05093)
Sequence (P05093 whole entry): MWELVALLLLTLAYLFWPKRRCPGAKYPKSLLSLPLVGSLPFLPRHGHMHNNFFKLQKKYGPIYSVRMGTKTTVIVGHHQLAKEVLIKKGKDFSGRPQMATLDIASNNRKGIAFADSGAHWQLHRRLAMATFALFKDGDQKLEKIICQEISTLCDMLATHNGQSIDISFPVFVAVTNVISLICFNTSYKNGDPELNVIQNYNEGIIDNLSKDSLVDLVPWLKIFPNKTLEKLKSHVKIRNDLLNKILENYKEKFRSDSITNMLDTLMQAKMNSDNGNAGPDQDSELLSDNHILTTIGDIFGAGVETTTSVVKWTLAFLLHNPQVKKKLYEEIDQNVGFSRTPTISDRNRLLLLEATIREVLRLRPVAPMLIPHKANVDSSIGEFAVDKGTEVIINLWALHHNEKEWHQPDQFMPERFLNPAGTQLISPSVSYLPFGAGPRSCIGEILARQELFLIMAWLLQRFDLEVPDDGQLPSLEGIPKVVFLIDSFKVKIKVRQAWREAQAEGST
assay.details: In vitro cytochrome P450 17A1 inhibition was assayed using the rapid acetic acid releasing assay (AARA), utilizing intact P450c17-expressing Escherichia coli or P450c17-LNCaP cells as the enzyme source.
Kindly apply the following: Condition met if IC50 is less than 600 nM, Condition not met in every other case.

Example entries begin here.
{"columns": ["compound", "test.target", "group"],
 "data": [
  ["C[C@]12CC[C@H](O)CC1=CC[C@@H]1[C@@H]2CC[C@]2(C)C(c3cccnc3)=CC[C@@H]12", "Steroid 17-alpha-hydroxylase/17,20 lyase (Homo sapiens, UniProt P05093)", "Condition not met"],
  ["C[C@]12CC[C@H](O)CC1=CCC1C2CC[C@@]2(C)C1CC[C@H]2c1ccncn1 (some centres undefined)", "Steroid 17-alpha-hydroxylase/17,20 lyase (Homo sapiens, UniProt P05093)", "Condition met"],
  ["C[C@]12CC[C@H](O)CC1=CCC1C2CC[C@]2(C)C(n3cnnn3)=CCC12 (some centres undefined)", "Steroid 17-alpha-hydroxylase/17,20 lyase (Homo sapiens, UniProt P05093)", "Condition not met"]
]}

[in] Hi there! Is IC50 for C[C@]12CC[C@H](O)CC1=CCC1C2CC[C@]2(C)C(n3nccn3)=CCC12 (some centres undefined) below 600 nM, do you know?
[out] Condition not met

[in] For this compound, is IC50 lower than 600 nM? C[C@]12CCC3C(CC=C4C[C@@H](O)CC[C@@]43C)C1C/C(=N\O)C2 (some centres undefined)
[out] Condition not met

[in] Please state whether IC50 is below 600 nM for C[C@]12CC[C@H](O)CC1=CCC1C2CC[C@]2(C)/C(=N/NC(N)=O)CCC12 (some centres undefined)
[out] Condition met

[in] Record `C/C(=N/O)C1=CC=C2[C@@H]3CCC4=CC(=O)CC[C@]4(C)[C@H]3CC[C@]12C` : is its IC50 strictly below 600 nM?
[out] Condition not met

[in] # check: IC50 < 600 nM for CC(=O)O[C@H]1CCC2C3C=CC4=CC(=O)C=C[C@]4(C)C3CC[C@@]21C (some centres undefined)
[out] Condition not met
